Would you kindly list pIC50 for each of these compounds?
Tested on: MDA-MB-231-pcDNA breast cancer cells
Experiment: Resazurin reduction assay (RRA), 72 h
Assay type: cell-based
Settings: 72 h incubation
For clarity, pIC50 is expressed as the negative log10 of concentration in mol/L.

**Query** Look up and state reported pIC50 for COc1cc(C2Oc3ccc4c(=O)c5ccccc5oc4c3OC2CO)cc(OC)c1O (stereo not shown)
**Result** 4.43

**Query** Look up and state reported pIC50 for COc1cccc2c1C(=O)c1c(O)c3c(c(O)c1C2=O)C[C@@](O)(C(=O)CO)C[C@@H]3O[C@H]1C[C@H](N)[C@H](O)[C@H](C)O1 [Doxorubicin, reference compound]
**Result** 6.89

**Query** Look up and state reported pIC50 for C[C@H]1C(=O)CC[C@@H]2[C@]1(C)CC[C@H]1[C@@]2(C)CC[C@@]2(C(=O)O)C3CC(C)(C)CC[C@]3(C)CC[C@]12C (stereo partly shown)
**Result** 4.78

**Query** Look up and state reported pIC50 for COc1cc(C2Oc3ccc4c(=O)c5c(O)cc(O)cc5oc4c3OC2CO)cc(OC)c1O (stereo not shown)
**Result** 4.68

**Query** Look up and state reported pIC50 for O=c1c2ccc(O)c(O)c2oc2cc(O)cc(O)c12 [Compound 5, 1,3,5,6-tetrahydroxyxanthone]
**Result** 4.12

**Query** Look up and state reported pIC50 for COc1cccc2c(=O)c3cc(O)ccc3oc12 [Compound 3, 2-hydroxy-5-methoxyxanthone]
**Result** 4.36

====

Test system: U87MG glioblastoma cells
Assay: Resazurin reduction assay (RRA), 72 h
Type: cell-based
Settings: Homo sapiens, U-87 MG, 72 h incubation
Would you kindly list pIC50 for each of these compounds?
For clarity, pIC50 is expressed as the negative log10 of concentration in mol/L.

**Query** Look up and state reported pIC50 for O=c1c2cc(O)c(O)cc2oc2cc(O)cc(O)c12 [Compound 4, 1,3,6,7-tetrahydroxyxanthone]
**Result** 3.97

**Query** Look up and state reported pIC50 for COc1cc(C2Oc3ccc4c(=O)c5ccccc5oc4c3OC2CO)cc(OC)c1O (stereo not shown)
**Result** 4.45

**Query** Look up and state reported pIC50 for O=c1c2ccc(O)c(O)c2oc2cc(O)cc(O)c12 [Compound 5, 1,3,5,6-tetrahydroxyxanthone]
**Result** 4.21

**Query** Look up and state reported pIC50 for COc1cc(C2Oc3ccc4c(=O)c5c(O)cc(O)cc5oc4c3OC2CO)cc(OC)c1O (stereo not shown)
**Result** 4.53

**Query** Look up and state reported pIC50 for COc1cccc2c1C(=O)c1c(O)c3c(c(O)c1C2=O)C[C@@](O)(C(=O)CO)C[C@@H]3O[C@H]1C[C@H](N)[C@H](O)[C@H](C)O1 [Doxorubicin, reference compound]
**Result** 6.59

**Query** Look up and state reported pIC50 for COc1cccc2c(=O)c3cc(O)ccc3oc12 [Compound 3, 2-hydroxy-5-methoxyxanthone]
**Result** 4.13

**Query** Look up and state reported pIC50 for C[C@H]1C(=O)CC[C@@H]2[C@]1(C)CC[C@H]1[C@@]2(C)CC[C@@]2(C(=O)O)C3CC(C)(C)CC[C@]3(C)CC[C@]12C (stereo partly shown)
**Result** 4.79

====

Would you kindly list IC50 for each of these compounds?
Test system: MDA-MB-231-BCRP breast cancer cells
Experiment: Resazurin reduction assay (RRA), 72 h
Type: cell-based
Conditions: 72 h incubation
Description: Cell lines used in this work included drug-sensitive and drug-resistant phenotypes of earlier reported origin. They were all provided by Prof. Dr. Thomas Efferth from his cell lines collection; they have being used in cytotoxicity screening by our team for a decade. […]
Numbers only; they are read as µM.

**Query** Look up and state reported IC50 for C[C@H]1C(=O)CC[C@@H]2[C@]1(C)CC[C@H]1[C@@]2(C)CC[C@@]2(C(=O)O)C3CC(C)(C)CC[C@]3(C)CC[C@]12C (stereo partly shown)
**Result** 15

**Query** Look up and state reported IC50 for O=c1c2cc(O)c(O)cc2oc2cc(O)cc(O)c12 [Compound 4, 1,3,6,7-tetrahydroxyxanthone]
**Result** 20.4

**Query** Look up and state reported IC50 for COc1cccc2c(=O)c3cc(O)ccc3oc12 [Compound 3, 2-hydroxy-5-methoxyxanthone]
**Result** 33.6

**Query** Look up and state reported IC50 for COc1cc(C2Oc3ccc4c(=O)c5ccccc5oc4c3OC2CO)cc(OC)c1O (stereo not shown)
**Result** 30.5

**Query** Look up and state reported IC50 for COc1cc(C2Oc3ccc4c(=O)c5c(O)cc(O)cc5oc4c3OC2CO)cc(OC)c1O (stereo not shown)
**Result** 22.2

**Query** Look up and state reported IC50 for COc1cccc2c1C(=O)c1c(O)c3c(c(O)c1C2=O)C[C@@](O)(C(=O)CO)C[C@@H]3O[C@H]1C[C@H](N)[C@H](O)[C@H](C)O1 [Doxorubicin, reference compound]
**Result** 0.79

**Query** Look up and state reported IC50 for O=c1c2ccc(O)c(O)c2oc2cc(O)cc(O)c12 [Compound 5, 1,3,5,6-tetrahydroxyxanthone]
**Result** 62.9

====

System: HCT116 (p53-/-) colon cancer cells
Assay: Resazurin reduction assay (RRA), 72 h
Assay type: cell-based
Conditions: Homo sapiens, HCT-116, 72 h incubation
Would you kindly list IC50 for each of these compounds?

**Query** Look up and state reported IC50 for COc1cc(C2Oc3ccc4c(=O)c5c(O)cc(O)cc5oc4c3OC2CO)cc(OC)c1O (stereo not shown)
**Result** > 91.7 µM

**Query** Look up and state reported IC50 for C[C@H]1C(=O)CC[C@@H]2[C@]1(C)CC[C@H]1[C@@]2(C)CC[C@@]2(C(=O)O)C3CC(C)(C)CC[C@]3(C)CC[C@]12C (stereo partly shown)
**Result** 44.2 µM

**Query** Look up and state reported IC50 for O=c1c2cc(O)c(O)cc2oc2cc(O)cc(O)c12 [Compound 4, 1,3,6,7-tetrahydroxyxanthone]
**Result** > 154 µM

**Query** Look up and state reported IC50 for COc1cccc2c1C(=O)c1c(O)c3c(c(O)c1C2=O)C[C@@](O)(C(=O)CO)C[C@@H]3O[C@H]1C[C@H](N)[C@H](O)[C@H](C)O1 [Doxorubicin, reference compound]
**Result** 1.78 µM

**Query** Look up and state reported IC50 for O=c1c2ccc(O)c(O)c2oc2cc(O)cc(O)c12 [Compound 5, 1,3,5,6-tetrahydroxyxanthone]
**Result** 112 µM

**Query** Look up and state reported IC50 for COc1cccc2c(=O)c3cc(O)ccc3oc12 [Compound 3, 2-hydroxy-5-methoxyxanthone]
**Result** > 165 µM

**Query** Look up and state reported IC50 for COc1cc(C2Oc3ccc4c(=O)c5ccccc5oc4c3OC2CO)cc(OC)c1O (stereo not shown)
**Result** > 85.5 µM
